B1: ACBD3 (parent)
chain: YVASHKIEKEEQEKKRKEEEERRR

Variants of: B1
Assay: protein stability index of a GFP-peptide fusion (GPS, HEK-293T) (PSI 1-6); higher = more stable;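 also: lentivirally expressed fusions sorted by FACS into six bins by GFP to DsRed ratio, PSI derived from sequencing read proportions per bin multiplied by bin number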
Conditions: c terminus: a fixed tail appended
test.readout: protein stability index
Give bare numbers.

Could I get protein stability index for every one of these entries?
1. E8H
2. R22E
3. V2C
4. S4P
5. S4K
6. E11A
7. H5P

Response given:
1: 1.96; 2: 3.02; 3: 4.4; 4: 3.8; 5: 3.67; 6: 3.79; 7: 3.08

Could I get protein stability index for every one of these entries?
1. K6F
2. R24M

Response given:
1. 2.79
2. 2.65

Could I get protein stability index for every one of these entries?
1. R24W
2. K14H
3. K17H

Response given:
2.63
2.22
2.74

Could I get protein stability index for every one of these entries?
1. E8S
2. R16P

Response given:
1: 2.83; 2: 2.6

Values were extracted from the supplement of paper PMC10567573.
